Target: Sa-ClpP (Staphylococcus aureus, UniProt Q2G036)
Construct: made in house; host or cells: E. coli BL21(DE3)
Assay: ADEP displacement fluorescence polarization assay (FP probe ADEP 2591)
Format: binding
*1 amine or outer side, *2 acyl side, *3 side chain or, on linkers, in order; H or OH if unused. Where a SMILES comes first, the peptide text is derived from it. Bridges are numbered along the chain shown (N, C = ends). [ ]: non-standard residue; d: D form. The star is where a group is joined. Phe(3,5-F2) = N[C@@H](Cc1cc(F)cc(F)c1)C(=O)O; NMepT = CN[C@H](C(=O)O)[C@@H](C)OP(=O)(O)O; Pro(4S-Me) = C[C@@H]1CN[C@H](C(=O)O)C1; NH(4-Me-phenyl) = Cc1ccc(N*)cc1; aThr = C[C@H](O)[C@H](N)C(=O)O; CO = O=C([*:1])[*:2]
Listed here are molecules together with their documented IC50.
Value expressed in µM; do not type the unit.

**Query** Provide IC50 value for the following molecule: Cc1ccc(NC(=O)N[C@@H](Cc2ccccc2)C(=O)N[C@H]2COC(=O)[C@@H]3C[C@@H](C)CN3C(=O)[C@H](C)NC(=O)[C@@H]3CCCCN3C(=O)[C@@H]3CCCN3C2=O)cc1C
**Result** 7.1

**Query** Give IC50 for the following molecule: C[C@@H]1C[C@H]2C(=O)OC[C@H](NC(=O)[C@H](Cc3ccccc3)NC(=O)Nc3ccc4c(c3)OCO4)C(=O)N3CCC[C@H]3C(=O)N3CCCC[C@H]3C(=O)N[C@@H](C)C(=O)N2C1
**Result** 8

**Query** For the molecule Cc1ccc(NC(=O)N[C@@H](Cc2cc(F)cc(F)c2)C(=O)N[C@@H]2C(=O)N3CCC[C@H]3C(=O)N(C)[C@@H]([C@@H](C)OP(=O)(O)O)C(=O)N[C@@H](C)C(=O)N3C[C@@H](C)C[C@H]3C(=O)O[C@H]2C)cc1 [Compound 188] ({NH(4-Me-phenyl)-CO}-[Phe(3,5-F2)][aThr]P[NMepT]A[Pro(4S-Me)]; ester 2-C) , report IC50.
**Result** 13.7

----------
Tested on: Staphylococcus aureus, USA 300
Assay: Minimal inhibitory concentration assay
Assay type: cell-based
Conditions: USA300, read-out: Minimal Inhibitory Concentrations S. aureus USA 300
*1 amine or outer side, *2 acyl side, *3 side chain or, on linkers, in order; H or OH if unused. Where a SMILES comes first, the peptide text is derived from it. Bridges are numbered along the chain shown (N, C = ends). [ ]: non-standard residue; d: D form. The star is where a group is joined. ξ: configuration not given here. NH(1,3-benzodioxol-5-yl) = c1cc2c(cc1N*)OCO2; Phe(3,5-F2) = N[C@@H](Cc1cc(F)cc(F)c1)C(=O)O; NH(1-Me-indolin-5-yl) = CN1CCc2cc(N*)ccc21; Pro(4S-Me) = C[C@@H]1CN[C@H](C(=O)O)C1; Pro(4R-Me) = C[C@H]1CN[C@H](C(=O)O)C1; ξNMeThr = CNC(C(=O)O)[C@@H](C)O; aThr = C[C@H](O)[C@H](N)C(=O)O; Pip = O=C(O)[C@@H]1CCCCN1; CO = O=C([*:1])[*:2]
Listed molecules paired with reported MIC
Provide only the numeric value, understood in µM.

These solved cases illustrate the format of a correct answer.
Cc1ccc(NC(=O)N[C@@H](Cc2cc(F)cc(F)c2)C(=O)N[C@H]2COC(=O)[C@@H]3C[C@@H](C)CN3C(=O)[C@H](C)NC(=O)C3CCCCN3C(=O)[C@@H]3C[C@@H](O)CN3C2=O)cc1 (stereo partly drawn)	1.25
C[C@H]1C[C@H]2C(=O)O[C@@H](C)[C@H](NC(=O)[C@H](Cc3cc(F)cc(F)c3)NC(=O)Nc3ccc4c(c3)OCO4)C(=O)N3CCC[C@H]3C(=O)N3CCCC[C@H]3C(=O)N[C@@H](C)C(=O)N2C1 [Compound 20] ({NH(1,3-benzodioxol-5-yl)-CO}-[Phe(3,5-F2)][aThr]P[Pip]A[Pro(4S-Me)]; ester 2-C)	0.8

Now, please, on to the next molecule.
**Query** Return MIC for the following molecule: C[C@@H]1C[C@H]2C(=O)O[C@@H](C)[C@H](NC(=O)[C@H](Cc3cc(F)cc(F)c3)NC(=O)Nc3ccc4c(c3)CCN4C)C(=O)N3CCC[C@H]3C(=O)N(C)C([C@@H](C)O)C(=O)N[C@@H](C)C(=O)N2C1 (stereo partly drawn) [Compound 311] ({NH(1-Me-indolin-5-yl)-CO}-[Phe(3,5-F2)][aThr]P[ξNMeThr]A[Pro(4R-Me)]; ester 2-C)
**Result** 0.156

----------
System: Streptococcus pneumoniae, R6
*1 amine or outer side, *2 acyl side, *3 side chain or, on linkers, in order; H or OH if unused. Where a SMILES comes first, the peptide text is derived from it. Bridges are numbered along the chain shown (N, C = ends). [ ]: non-standard residue; d: D form. The star is where a group is joined. Phe(3,5-F2) = N[C@@H](Cc1cc(F)cc(F)c1)C(=O)O; NH(4-Me-phenyl) = Cc1ccc(N*)cc1; aThr = C[C@H](O)[C@H](N)C(=O)O; Pip = O=C(O)[C@@H]1CCCCN1; CO = O=C([*:1])[*:2]
MEASURE_NAME: MIC (µM)
Write it as a number; the unit µM goes unstated.

**Query** Give measured MIC for Cc1ccc(NC(=O)N[C@@H](Cc2cc(F)cc(F)c2)C(=O)N[C@@H]2C(=O)N3CCC[C@H]3C(=O)N3CCCC[C@H]3C(=O)N[C@@H](C)C(=O)N3CCC[C@H]3C(=O)O[C@H]2C)cc1 [Compound 15] ({NH(4-Me-phenyl)-CO}-[Phe(3,5-F2)][aThr]P[Pip]AP; ester 2-C) (Streptococcus pneumoniae, R6).
**Result** 0.3

----------
Experiment: Cytotoxicity assay (CellTiter-Glo cell viability, 72 hours)
Format: cell-based
Details: African green monkey
*1 amine or outer side, *2 acyl side, *3 side chain or, on linkers, in order; H or OH if unused. Where a SMILES comes first, the peptide text is derived from it. Bridges are numbered along the chain shown (N, C = ends). [ ]: non-standard residue; d: D form. The star is where a group is joined. Phe(3,5-F2) = N[C@@H](Cc1cc(F)cc(F)c1)C(=O)O; Morpholine(3S-CO) = O=C(O)[C@@H]1COCCN1; Pro(4S-Me) = C[C@@H]1CN[C@H](C(=O)O)C1; NH(4-Cl-2-F-phenyl) = Fc1cc(Cl)ccc1N*; Pro(4R-Me) = C[C@H]1CN[C@H](C(=O)O)C1; NMeaThr = CN[C@H](C(=O)O)[C@H](C)O; Hyp = O=C(O)[C@@H]1C[C@@H](O)CN1; NH(4-Et-phenyl) = CCc1ccc(N*)cc1; NMeT = CN[C@H](C(=O)O)[C@@H](C)O; Heptenoyl(2E) = CCCC/C=C/C(=O)*; aThr = C[C@H](O)[C@H](N)C(=O)O; Pip = O=C(O)[C@@H]1CCCCN1; X1 = N#Cc1cc(N*)ccc1F; CO = O=C([*:1])[*:2]
MEASURE_NAME: IC50 at 72 h

Below: 4 compounds and their reported IC50 at 72 h.
C[C@@H]1C[C@H]2C(=O)O[C@@H](C)[C@H](NC(=O)[C@H](Cc3cc(F)cc(F)c3)NC(=O)Nc3ccc(F)c(C#N)c3)C(=O)N3C[C@H](O)C[C@H]3C(=O)N3CCOC[C@H]3C(=O)N[C@@H](C)C(=O)N2C1 [Compound 326] ({X1-CO}-[Phe(3,5-F2)][aThr][Hyp][Morpholine(3S-CO)]A[Pro(4R-Me)]; ester 2-C)	> 100 µM
C[C@@H]1C[C@H]2C(=O)O[C@@H](C)[C@H](NC(=O)[C@H](Cc3cc(F)cc(F)c3)NC(=O)Nc3ccc(Cl)cc3F)C(=O)N3C[C@H](O)C[C@H]3C(=O)N3CCOC[C@H]3C(=O)N[C@@H](C)C(=O)N2C1 [Compound 316] ({NH(4-Cl-2-F-phenyl)-CO}-[Phe(3,5-F2)][aThr][Hyp][Morpholine(3S-CO)]A[Pro(4R-Me)]; ester 2-C)	> 100 µM
CCc1ccc(NC(=O)N[C@@H](Cc2cc(F)cc(F)c2)C(=O)N[C@@H]2C(=O)N3CCC[C@H]3C(=O)N(C)[C@@H]([C@H](C)O)C(=O)N[C@@H](C)C(=O)N3C[C@@H](C)C[C@H]3C(=O)O[C@H]2C)cc1 [Compound 204] ({NH(4-Et-phenyl)-CO}-[Phe(3,5-F2)][aThr]P[NMeaThr]A[Pro(4S-Me)]; ester 2-C)	33.8 µM
CCCC/C=C/C(=O)N[C@@H](Cc1cc(F)cc(F)c1)C(=O)N[C@@H]1C(=O)N2CCC[C@H]2C(=O)N(C)[C@@H]([C@@H](C)O)C(=O)N[C@@H](C)C(=O)N2C[C@H](C)C[C@H]2C(=O)O[C@H]1C [Compound 308] ({Heptenoyl(2E)}-[Phe(3,5-F2)][aThr]P[NMeT]A[Pro(4R-Me)]; ester 2-C)	38.6 µM

**Query** Quickly give me recorded IC50 at 72 h for C[C@@H]1C[C@H]2C(=O)O[C@@H](C)[C@H](NC(=O)[C@H](Cc3cc(F)cc(F)c3)NC(=O)Nc3ccc(F)c(C#N)c3)C(=O)N3CCC[C@H]3C(=O)N3CCCC[C@H]3C(=O)N[C@@H](C)C(=O)N2C1 [Compound 324] ({X1-CO}-[Phe(3,5-F2)][aThr]P[Pip]A[Pro(4R-Me)]; ester 2-C)
**Result** 10.2 µM

**Query** Annotate the compound CCc1ccc(NC(=O)N[C@@H](Cc2cc(F)cc(F)c2)C(=O)N[C@@H]2C(=O)N3C[C@H](O)C[C@H]3C(=O)N3CCOC[C@H]3C(=O)N[C@@H](C)C(=O)N3C[C@H](C)C[C@H]3C(=O)O[C@H]2C)cc1 [Compound 320] ({NH(4-Et-phenyl)-CO}-[Phe(3,5-F2)][aThr][Hyp][Morpholine(3S-CO)]A[Pro(4R-Me)]; ester 2-C) with its measured IC50 at 72 h.
**Result** > 100 µM
